Assay: Biodistribution study in LNCaP tumor-bearing mice (Th227 counted in organs)
Format: in vivo, SCID mice
Conditions: 0.25 h; 1500 kBq/kg
Excerpt: SCID mice were randomly assigned to experimental groups, ten animals per group (efficacy) or n=3-5 per time point of biodistribution study. […] At the predetermined time point, n=3 animals were sacrificed, the organs removed, weight and measured in a Germanium detector to count the Th227 in the sample.
Parameter measured: Th-227 in small intestine (% ID Th-227/g organ)
Give bare numbers, in % ID Th-227/g organ.

What does the data say about its Th-227 in small intestine? Entry: O=C([O-])CN1CCN(CC(=O)[O-])CCN(CC(=O)NCC2CCC(C(=O)NC(Cc3ccc4ccccc4c3)C(=O)NCCCCC(NC(=O)NC(CCC(=O)O)C(=O)O)C(=O)O)CC2)CCN(CC(=O)[O-])CC1.[227Th+4] [Example 1-B-D-227Th]
1.21
